type: in vivo, human; details: female, human, plasma, oral, 100 mg
quantity.kind: bioavailability (%)
Write the answer as a number in %, unit excluded.

Returns the measured bioavailability for the input molecule. Input: CC1(C)CCC(CN2CCN(c3ccc(C(=O)NS(=O)(=O)c4ccc(NCC5CCOCC5)c([N+](=O)[O-])c4)c(Oc4cnc5[nH]ccc5c4)c3)CC2)=C(c2ccc(Cl)cc2)C1 [venetoclax] 5.4

====

assay type: in vivo, human; conditions: female, human, plasma, po, 100 mg, Tmax, 100 mg venetoclax oral tablet, fasting, healthy female subjects, N = 12; median (range)
quantity.kind: Tmax

For the compound CC1(C)CCC(CN2CCN(c3ccc(C(=O)NS(=O)(=O)c4ccc(NCC5CCOCC5)c([N+](=O)[O-])c4)c(Oc4cnc5[nH]ccc5c4)c3)CC2)=C(c2ccc(Cl)cc2)C1 [venetoclax] , what Tmax is on record? ~4 h

====

format: in vivo, human; settings: female, human, plasma, iv, 100 µg, t 1/2, 100 µg 13C-venetoclax solution for IV infusion, N = 11; harmonic mean (pseudo %CV)
quantity.kind: half-life

Form field: reported half-life of CC1(C)CCC(CN2CCN(c3ccc(C(=O)NS(=O)(=O)c4ccc(NCC5CCOCC5)c([N+](=O)[O-])c4)c(Oc4cnc5[nH]ccc5c4)c3)CC2)=C(c2ccc(Cl)cc2)C1 ~14 h

====

assay type: in vivo, human; settings: female, human, plasma, po, 100 mg
quantity.kind: Cmax (ng/mL)
The figure you give is taken to be in ng/mL; do not add the unit.

Which Cmax value belongs to CC1(C)CCC(CN2CCN(c3ccc(C(=O)NS(=O)(=O)c4ccc(NCC5CCOCC5)c([N+](=O)[O-])c4)c(Oc4cnc5[nH]ccc5c4)c3)CC2)=C(c2ccc(Cl)cc2)C1 ? 149

====

type: in vivo, human; conditions: female, human, plasma, po, 100 mg
quantity.kind: AUC(0-inf) (ng·h/mL)
Give the quantity in ng·h/mL, number only.

Bench note: what AUC(0-inf) did CC1(C)CCC(CN2CCN(c3ccc(C(=O)NS(=O)(=O)c4ccc(NCC5CCOCC5)c([N+](=O)[O-])c4)c(Oc4cnc5[nH]ccc5c4)c3)CC2)=C(c2ccc(Cl)cc2)C1 [venetoclax] show? 1930

====

format: in vivo, human; settings: female, human, plasma, po, 100 mg, t 1/2, 100 mg venetoclax oral tablet, fasting, N = 12; harmonic mean (pseudo %CV)
quantity.kind: half-life

Sample CC1(C)CCC(CN2CCN(c3ccc(C(=O)NS(=O)(=O)c4ccc(NCC5CCOCC5)c([N+](=O)[O-])c4)c(Oc4cnc5[nH]ccc5c4)c3)CC2)=C(c2ccc(Cl)cc2)C1 — what was its half-life? ~14 h
